Target: T1, human ferroportin (SLC40A1) fused in frame with GFP, stably expressed in HEK293 cells (human, UniProt Q9NP59 1-571)
T1 sequence (looked up): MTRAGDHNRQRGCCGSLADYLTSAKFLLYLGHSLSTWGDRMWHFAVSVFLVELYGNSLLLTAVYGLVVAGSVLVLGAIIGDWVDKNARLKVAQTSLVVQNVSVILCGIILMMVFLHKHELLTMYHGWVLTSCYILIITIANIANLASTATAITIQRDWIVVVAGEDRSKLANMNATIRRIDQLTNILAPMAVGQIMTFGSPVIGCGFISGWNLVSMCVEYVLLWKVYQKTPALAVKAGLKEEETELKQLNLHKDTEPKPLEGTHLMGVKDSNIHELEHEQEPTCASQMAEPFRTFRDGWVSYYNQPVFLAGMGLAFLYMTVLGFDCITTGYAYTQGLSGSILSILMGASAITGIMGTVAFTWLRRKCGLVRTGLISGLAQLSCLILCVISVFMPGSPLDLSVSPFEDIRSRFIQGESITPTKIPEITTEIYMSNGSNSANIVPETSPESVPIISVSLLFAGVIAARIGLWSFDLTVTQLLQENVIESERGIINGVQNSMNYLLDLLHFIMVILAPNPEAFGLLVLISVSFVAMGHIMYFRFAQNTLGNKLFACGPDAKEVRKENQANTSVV
Test: cell-based or functional assay
Numbered stars: 1 amine (or outer) side, 2 acyl side, 3 side chain; on linkers, the order of the positions; unused ones are H or OH. Bridge positions count the residues as written; N and C are the ends. Square brackets hold non-standard residues; d marks the D form. Primed or numbered codes have the meaning given here. Ends that are not written are not given here. * marks the point of attachment. PEG3″ = NH2CH2CH2(OCH2CH2)3CH2CH2CO2H (PEG3 linker), NCCOCCOCCOCCCCC(=O)*; Ida = iminodiacetic acid, O=C(CN(CC(=O)[*:3])[*:1])[*:2]; PEG3′ = NH2CH2CH2(OCH2CH2)3CH2CH2CO2H (PEG3 linker); Palmitoyl = CCCCCCCCCCCCCCCC(=O)*; Decanoyl = CCCCCCCCCC(=O)*; β3hP = O=C(O)C[C@@H]1CCCN1; Isovaleryl = CC(C)CC(=O)*; Albu = not defined here; Sar = CNCC(=O)O
Classify by measured Potency EC50 (nM), ferroportin-GFP internalization/degradation: 1 if it is equal to or exceeds 30 nM, 0 if it is smaller.

binder="Isovaleryl-DTHAPCIKFGPRSKGWVCK-NH2 (not fully specified (bridges); cysteine pairing not given here) [Isovaleric acid-DTHAPCIKFGPRSKGWVCK-NH2]" categorylabel=1
binder="Isovaleryl-DTHFPCIIF-NH2 (SMILES CC[C@H](C)[C@H](NC(=O)[C@H](CS)NC(=O)[C@@H]1CCCN1C(=O)[C@H](Cc1ccccc1)NC(=O)[C@H](Cc1c[nH]cn1)NC(=O)[C@@H](NC(=O)[C@H](CC(=O)O)NC(=O)CC(C)C)[C@@H](C)O)C(=O)N[C@H](C(=O)N[C@@H](Cc1ccccc1)C(N)=O)[C@@H](C)CC) [Isovaleric acid-DTHFPCIIF-NH2]" categorylabel=0
binder="Isovaleryl-DTHFPCIKFEPHSK(Albu)GCK-NH2 (not fully specified (bridges); cysteine pairing not given here; reading uncertain) [Isovaleric acid-DTHFPCIKFEPHS-K(Albu)-GCK-NH2]" categorylabel=0
binder="DTHFPCIKFKPHSKECK (N-terminal isovaleric acid; K(isoglu-Palm) at Lys 10; C-terminal amide) [Isovaleric acid-DTHFPCIKF-K(isoglu-Palm)-PHSKECK-NH2]" categorylabel=0
binder="Isovaleryl-DTHFPCRRFGPRSKGWVCK-NH2 (disulfide 6-18 (inferred)) [Isovaleric acid-DTHFPCRRFGPRSKGWVCK-NH2]" categorylabel=1
binder="Isovaleryl-DTHFPCIIF[PEG3′]C-NH2 (cysteine pairing not given here) [Isovaleric acid-DTHFPCIIF-[PEG3]-C-NH2]" categorylabel=1
binder="DTHFPCIKFKPRSKGWVC (not fully specified; N-terminal isovaleric acid; K(mysteric acid) at Lys 10; C-terminal amide) [Isovaleric acid-DTHFPCIKF-K(mysteric acid)-PRSKGWVC-NH2]" categorylabel=0
binder="[Ida]THFPCIKFEPRSKGWVCK(Decanoyl)-NH2 (disulfide 6-18 (inferred)) [[Ida]-THFPCIKFEPRSKGWVC-K(decanoic acid)-NH2]" categorylabel=1
binder="Isovaleryl-DTHFPCIIFEPRSKHWVCK-NH2 (disulfide 6-18 (inferred)) [Isovaleric acid-DTHFPCIIFEPRSKHWVCK-NH2]" categorylabel=0
binder="H-DTHFACIIF-NH2 [Hy-DTHFACIIF-NH2]" categorylabel=1
binder="{Palmitoyl-PEG3″}-DTHFPCIKFGPRSKGWVCK-NH2 (disulfide 6-18 (inferred)) [Palm-PEG3-DTHFPCIKFGPRSKGWVCK-NH2]" categorylabel=1
binder="H-DTHFPIAIICI-NH2 [Hy-DTHFPIAIICI-NH2]" categorylabel=1
binder="H-DTHFPCRIFGPRSRGWVCK-NH2 (disulfide 6-18 (inferred)) [Hy-DTHFPCRIFGPRSRGWVCK-NH2]" categorylabel=1
binder="[Ida]THF[β3hP]CIIF-NH2 [[Ida]-THF-[bhPro]-CIIF-NH2]" categorylabel=1
binder="H-DTHFPCFIF-NH2 [Hy-DTHFPCFIF-NH2]" categorylabel=1
binder="{4,4‑5,5‑6,6,6‑heptafluorohexanoic acid}-DTHFPCIKFGPRSKGWVCK-NH2 (disulfide 6-18 (inferred)) [4,4-5,5-6,6,6-Heptafluorohexanoic acid-DTHFPCIKFGPRSKGWVCK-NH2]" categorylabel=1
binder="H-DTHICIAIF-NH2 [Hy-DTHICIAIF-NH2]" categorylabel=1
binder="DTHFPCIKFEPRSKGCKK (N-terminal isovaleric acid; K(isoglu-Palm) at Lys 18; C-terminal amide) [Isovaleric acid-DTHFPCIKFEPRSKGCK-K(isoglu-Palm)-NH2]" categorylabel=0
binder="Isovaleryl-DTHFPCIKFEPHSK[Sar]CK-NH2 (not fully specified (bridges); cysteine pairing not given here) [Isovaleric acid-DTHFPCIKFEPHSK-[Sarc]-CK-NH2]" categorylabel=0
binder="Isovaleryl-DTHFPCIFEPRSKGTCK-NH2 (disulfide 6-16 (inferred)) [Isovaleric acid-DTHFPCIFEPRSKGTCK-NH2]" categorylabel=1
binder="H-DTHFPCIIFGGPRSKGWDCK-NH2 (disulfide 6-19 (inferred)) [Hy-DTHFPCIIFGGPRSKGWDCK-NH2]" categorylabel=1
